target: human Chk2 kinase (Homo sapiens); assay: biochemical
pIC50: −log10 of the molar value.
Readout Name: pIC50

Reference set, count: 9
# Compound, pIC50
data = [
    ("CN1CCC2(CC1)CCN(c1ccc(-n3cnc(Nc4cnc(C#N)cn4)c3)cc1)C2 [Example 60]", "4.00 to 5.00"),
    ("N#Cc1cnc(Nc2cn(-c3ccc(CN4CCOCC4)cc3)cn2)cn1 [Example 142]", "4.00 to 5.00"),
    ("N#Cc1cnc(Nc2cn(-c3ccc(CN4CC[C@@H](F)C4)cc3F)cn2)cn1 [Example 6]", "< 4.00"),
    ("COc1cc(N2CC[C@@H](N3CCC3)C2)ccc1-n1cnc(Nc2cnc(C#N)cn2)c1 [Example 103]", "5.00 to 6.00"),
    ("CN1CC[C@@H]2[C@H]1CCN2c1ccc(-n2cnc(Nc3cnc(C#N)cn3)c2)cc1 [Example 91]", "4.00 to 5.00"),
    ("CN1CC[C@@H]2CN(c3ccc(-n4cnc(Nc5cnc(C#N)cn5)c4)cc3)C[C@@H]21 [Example 87]", "4.00 to 5.00"),
    ("COc1cc(N2CCN3CCC[C@H]3C2)ccc1-n1cnc(Nc2cnc(C#N)cn2)c1 [Example 30]", "4.00 to 5.00"),
    ("CN1CC2(CC(Oc3ccc(-n4cnc(Nc5cnc(C#N)cn5)c4)cc3)C2)C1 [Example 178]", "4.00 to 5.00"),
    ("CN(C)[C@@H]1CCN(c2ccc(-n3cnc(Nc4cnc(C#N)cn4)c3)c(C(F)(F)F)c2)C1 [Example 71]", "< 4.00"),
]

Consider the additional compound presented here.
# pIC50 measured on human Chk2 kinase (Homo sapiens) for item CCN1CCC(Nc2ccc(-n3cnc(Nc4cnc(C#N)cn4)c3)c(OC)c2)CC1 [Example 41] = 4.00 to 5.00

---

Recorded measurements of IC50, one per entry
molecular target: human Chk2 kinase (Homo sapiens, UniProt O96017); assay: biochemical
Sequence (O96017 whole entry): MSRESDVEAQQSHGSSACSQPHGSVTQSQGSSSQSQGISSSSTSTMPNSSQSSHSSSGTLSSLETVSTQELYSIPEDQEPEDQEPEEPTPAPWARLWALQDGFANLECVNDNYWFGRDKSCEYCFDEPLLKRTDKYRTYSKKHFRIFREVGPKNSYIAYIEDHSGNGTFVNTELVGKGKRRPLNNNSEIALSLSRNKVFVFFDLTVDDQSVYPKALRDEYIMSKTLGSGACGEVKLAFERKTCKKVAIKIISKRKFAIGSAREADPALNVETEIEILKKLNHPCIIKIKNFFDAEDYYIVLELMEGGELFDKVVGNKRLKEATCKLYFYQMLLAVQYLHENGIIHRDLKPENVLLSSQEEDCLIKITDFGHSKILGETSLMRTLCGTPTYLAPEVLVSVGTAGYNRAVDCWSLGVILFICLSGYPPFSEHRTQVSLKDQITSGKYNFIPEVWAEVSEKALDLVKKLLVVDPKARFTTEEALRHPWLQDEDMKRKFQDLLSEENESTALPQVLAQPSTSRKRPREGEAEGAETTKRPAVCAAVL

# Molecule, Target Or Test System, Obs Value
measured = [
    ("CN1CCC2(CCN2c2ccc(-n3cnc(Nc4cnc(C#N)cn4)c3)cc2)C1 (single isomer, unassigned)", "human Chk2 kinase (Homo sapiens, UniProt O96017)", "10 to 100 µM"),
    ("CN(C)[C@H]1CN(c2ccc(-n3cnc(Nc4cnc(C#N)cn4)c3)cc2)C[C@@H]1F", "human Chk2 kinase (Homo sapiens, UniProt O96017)", "1 to 10 µM"),
    ("CN1C[C@@H](F)[C@@H](OCc2ccc(-n3cnc(Nc4cnc(C#N)cn4)c3)cc2)C1", "human Chk2 kinase (Homo sapiens, UniProt O96017)", "10 to 100 µM"),
]

Okay, next one:
Readout IC50 for CN(C)CC1CN(c2cccc(-n3cnc(Nc4cnc(C#N)cn4)c3)c2)CCO1 (single isomer, unassigned) , test system human Chk2 kinase (Homo sapiens, UniProt O96017), was 10 to 100 µM

---

target: human Chk2 kinase (Homo sapiens); test: biochemical
pIC50: −log10 of the molar value.
This listing pairs compounds with measured pIC50.

These recorded examples may help you get a feel for the data.
# Compound, Target Or Test System, pIC50
records = [
    ("CCN[C@@H]1CCN(c2ccc(-n3cnc(Nc4cnc(C#N)cn4)c3)cc2)C1 [Example 162]", "human Chk2 kinase (Homo sapiens)", "5.00 to 6.00"),
    ("CN1CCN(c2ccc(-n3cnc(Nc4cnc(C#N)cn4)c3)cc2F)CC1 [Example 21]", "human Chk2 kinase (Homo sapiens)", "4.00 to 5.00"),
    ("CN1C[C@@H]2C[C@H]1CN2c1ccc(-n2cnc(Nc3cnc(C#N)cn3)c2)cc1 [Example 10]", "human Chk2 kinase (Homo sapiens)", "4.00 to 5.00"),
    ("CN1CC[C@@H](N(C)c2ccc(-n3cnc(Nc4cnc(C#N)cn4)c3)cc2)C1 [Example 94]", "human Chk2 kinase (Homo sapiens)", "4.00 to 5.00"),
    ("CCN(C)[C@@H]1CCN(c2ccc(-n3cnc(Nc4cnc(C#N)cn4)c3)nc2)C1 [Example 90]", "human Chk2 kinase (Homo sapiens)", "5.00 to 6.00"),
]

// N#Cc1cnc(Nc2cn(-c3ccc(N4CC[C@@H](N5CCOCC5)C4)cc3)cn2)cn1 [Example 72] : pIC50 value = 4.00 to 5.00

---

biological target: human Chk2 kinase (Homo sapiens, UniProt O96017); assay: biochemical
Readout Name: IC50

# Compound, Readout Name, Obs Value
rows = [
    ("N#Cc1cnc(Nc2cn(-c3ccc(N4C[C@H]5CN[C@H]5C4)cc3)cn2)cn1", "IC50", "1 to 10 µM"),
]

For `CCNCc1ccc(-n2cnc(Nc3cnc(C#N)cn3)c2)c(OC)c1` the compound record lists IC50 as 10 to 100 µM

Lab book: IC50 of CC(C)C1CN(C2CCN(c3ccc(-n4cnc(Nc5cnc(C#N)cn5)c4)cc3)C2)C1 (single isomer, unassigned) [Example 133] noted as 10 to 100 µM

Input `COc1cc(N2CCN(C)C[C@@H]2C)ccc1-n1cnc(Nc2cnc(C#N)cn2)c1` . Output IC50: 10 to 100 µM

Quick note, IC50 for `COc1cc(N(C)C2CCN(C)CC2)ccc1-n1cnc(Nc2cnc(C#N)cn2)c1` landed at 10 to 100 µM

The compound listed as `CN1CC2(CCN2c2ccc(-n3cnc(Nc4cnc(C#N)cn4)c3)cc2)C1` has a reported IC50 of 10 to 100 µM
